- Tested on: T. equi
- experimentalProtocol: Growth inhibitory fluorescence assay in vitro, T. equi
- Format: cell-based, Theileria equi
- condition: T. equi in vitro culture, fluorescence assay, 96 h
reportedMetric: IC50 (µM)
State just the number; it will be interpreted in µM.

Problem: Query IC50 for CC(=O)NCC(=O)O.CC(=O)NCC(=O)O.N=C(N)c1ccc(N=NNc2ccc(C(=N)N)cc2)cc1 [DA, diminazene aceturate]
Solution: 0.71

---

- Test system: Madin–Darby bovine kidney (MDBK) cell line
- experimentalProtocol: cells
- Assay type: cell-based
- condition: cell viability, MDBK, 24 h, CCK-8
reportedMetric: pEC50
Just so you know, pEC50 here is -log10 of the concentration in molar units; reply with that number alone.

Problem: Query pEC50 for CC(C)/N=c1\cc2n(-c3ccc(Cl)cc3)c3ccccc3nc-2cc1Nc1ccc(Cl)cc1
Solution: 4.46

---

- Tested on: B. bigemina
- experimentalProtocol: Growth inhibitory fluorescence assay in vitro, B. bigemina
- Format: cell-based, Babesia bigemina
- condition: B. bigemina in vitro culture, fluorescence assay, 96 h
reportedMetric: pIC50
Just so you know, pIC50 here is -log10 of the concentration in molar units; reply with that number alone.

Problem: Query pIC50 for CC(=O)NCC(=O)O.CC(=O)NCC(=O)O.N=C(N)c1ccc(N=NNc2ccc(C(=N)N)cc2)cc1 [DA, diminazene aceturate]
Solution: 6.17

---

- Test system: B. divergens
- experimentalProtocol: Growth inhibitory fluorescence assay in vitro, B. divergens
- Type: cell-based, Babesia divergens
- condition: B. divergens in vitro culture, fluorescence assay, 96 h; read-out: IC50
reportedMetric: pIC50
Just so you know, pIC50 here is -log10 of the concentration in molar units; reply with that number alone.

Problem: Query pIC50 for CC(=O)NCC(=O)O.CC(=O)NCC(=O)O.N=C(N)c1ccc(N=NNc2ccc(C(=N)N)cc2)cc1 [DA, diminazene aceturate]
Solution: 6.37

These data points were gathered from paper PMC7451656.
